Ref: patent US9487462B2

Assay: Cytotoxicity, alamarBlue viability, HCT116
Type: cell-based
Conditions: human, HCT116 colon tumor cells, 48 hours incubation, read-out: HCT116 LC50
measured-parameter: CC50 at 48 h (µM)
Give just the number in µM; leave the unit off.

Briefly, CC50 at 48 h measured for CCOC(=O)c1csc(CN(Cc2ccncc2)Cc2ccc(OCc3ccccc3)cc2)n1 : 16

Measured CC50 at 48 h, CCOC(=O)c1csc(CN(Cc2ccc(OCc3cccnc3)cc2)Cc2cccnc2)n1 : 47

CC50 at 48 h reported for this compound O=C(O)c1csc(CN(Cc2ccccc2)Cc2ccccc2)n1 : 73

Per the record, O=C(O)c1csc(CN(Cc2ccc(F)cc2)Cc2ccc(OCc3cccnc3)cc2)n1 has CC50 at 48 h of 11

// field: CC50 at 48 h; key: O=C(O)c1csc(CN(Cc2ccc(F)cc2)Cc2ccc(-c3ccccc3)cc2)n1 ; value = 1

// CC50 at 48 h value for CCOC(=O)c1csc(CN(Cc2ccc(OCc3ccccc3)cc2)Cc2cccnc2)n1 : 1.8
